Ref: ChEMBL document CHEMBL3885861

Species on record: Rattus norvegicus
Assay: Open TG-GATES - Regimen: Single
Format: toxicity, organism-based, Sprague-Dawley
Set-up: regimen Single, gender Male, age 6 weeks
Conditions: in vivo, po, 300 mg/kg, 24 h, tissue Blood, route gavage, dose level Middle
Binary call on Neu: t from 20% upward, f beneath that.

Below are worked cases with known answers.
compound structure	assigned category
COC(=O)C1=C(C)NC(C)=C(C(=O)OC)C1c1ccccc1[N+](=O)[O-]	t
CN/C(=N/CCSCc1nc[nH]c1C)NC#N	f
Cc1nnc2n1-c1ccc(Cl)cc1C(c1ccccc1Cl)=NC2	t
O=C(OC[C@H]1O[C@@H](OC(=O)c2cc(O)c(O)c(OC(=O)c3cc(O)c(O)c(O)c3)c2)[C@H](OC(=O)c2cc(O)c(O)c(OC(=O)c3cc(O)c(O)c(O)c3)c2)[C@@H](OC(=O)c2cc(O)c(O)c(OC(=O)c3cc(O)c(O)c(O)c3)c2)[C@@H]1OC(=O)c1cc(O)c(O)c(OC(=O)c2cc(O)c(O)c(O)c2)c1)c1cc(O)c(O)c(OC(=O)c2cc(O)c(O)c(O)c2)c1	f

Let's switch to this molecule now.
Req: Exam item: decide whether the reported Neu for CNC(=C[N+](=O)[O-])NCCSCc1ccc(CN(C)C)o1 is at least 20%.
Resp: f

###

Organism: Rattus norvegicus
Experiment: Open TG-GATES - Regimen: Daily Repeat
Format: toxicity, organism-based, Sprague-Dawley
Design: regimen Daily Repeat, gender Male, age 6 weeks
Conditions: in vivo, po, 100 mg/kg, […], tissue Blood, route gavage, dose level Low, time 28 day
value kind: MCHC (%)
Express the result in % but write the number alone.

compound structure	MCHC (%)
CCOc1ccc(NC(C)=O)cc1	34.3
CN/C(=N/CCSCc1nc[nH]c1C)NC#N	34.5
CNC(=C[N+](=O)[O-])NCCSCc1ccc(CN(C)C)o1	34.9
COC(=O)C1=C(C)NC(C)=C(C(=O)OC)C1c1ccccc1[N+](=O)[O-]	32.3
Cc1nnc2n1-c1ccc(Cl)cc1C(c1ccccc1Cl)=NC2	33.6

Proceed to the following item.
Req: Look at this molecule and give its reported MCHC. O=C(OC[C@H]1O[C@@H](OC(=O)c2cc(O)c(O)c(OC(=O)c3cc(O)c(O)c(O)c3)c2)[C@H](OC(=O)c2cc(O)c(O)c(OC(=O)c3cc(O)c(O)c(O)c3)c2)[C@@H](OC(=O)c2cc(O)c(O)c(OC(=O)c3cc(O)c(O)c(O)c3)c2)[C@@H]1OC(=O)c1cc(O)c(O)c(OC(=O)c2cc(O)c(O)c(O)c2)c1)c1cc(O)c(O)c(OC(=O)c2cc(O)c(O)c(O)c2)c1
Resp: 33.5

###

Organism: Rattus norvegicus
Assay: Open TG-GATES - Regimen: Daily Repeat
Format: toxicity, organism-based, Sprague-Dawley
Parameters: regimen Daily Repeat, gender Male, age 6 weeks
Conditions: in vivo, po, 1000 mg/kg, […], tissue Blood, route gavage, dose level High, time 7 day
value kind: Neu (%)
Express the result in % but write the number alone.

These solved cases illustrate the format of a correct answer.
compound structure	Neu (%)
COC(=O)C1=C(C)NC(C)=C(C(=O)OC)C1c1ccccc1[N+](=O)[O-]	23.8
CN/C(=N/CCSCc1nc[nH]c1C)NC#N	14.4
Cc1nnc2n1-c1ccc(Cl)cc1C(c1ccccc1Cl)=NC2	21.6
CCOc1ccc(NC(C)=O)cc1	33.4
CNC(=C[N+](=O)[O-])NCCSCc1ccc(CN(C)C)o1	12.8

Proceed to the following item.
Req: Look at this compound and give its reported Neu. O=C(OC[C@H]1O[C@@H](OC(=O)c2cc(O)c(O)c(OC(=O)c3cc(O)c(O)c(O)c3)c2)[C@H](OC(=O)c2cc(O)c(O)c(OC(=O)c3cc(O)c(O)c(O)c3)c2)[C@@H](OC(=O)c2cc(O)c(O)c(OC(=O)c3cc(O)c(O)c(O)c3)c2)[C@@H]1OC(=O)c1cc(O)c(O)c(OC(=O)c2cc(O)c(O)c(O)c2)c1)c1cc(O)c(O)c(OC(=O)c2cc(O)c(O)c(O)c2)c1
Resp: 21.2
